biological target: human recombinant acetylcholinesterase (Hr-AChE) (Homo sapiens); construct: purchased Sigma-Aldrich C1682; test: biochemical; conditions: pH 8, at 100 µM compound; 70 µM acetylcholine; ammonium acetate 15.0 mM, pH 8.0; n = 3; read-out: % inhibition ± s.e.m. ICER-AChEhr
Measurement Kind: inhibition at 100 µM (%)
One number for each entry, in %.

C/C(=C\C(=O)O)CC[C@]1(C)C2=CCC[C@@](C)(C=O)[C@H]2CC[C@H]1C [Compound 6]: 3.23

Record C/C(=C\C(=O)O)CC[C@H]1[C@](C)(O)[C@H](O)C[C@H]2C(C)(C)CCC[C@@]21C (relative stereo) [Compound 7] , field inhibition at 100 µM: 4.71

---

target: human recombinant acetylcholinesterase (Hr-AChE) (Homo sapiens); construct: purchased Sigma-Aldrich C1682; assay: biochemical; conditions: authors' verbal rating
Measurement Kind: inhibitory activity on Hr-AChE (in words)

C/C(=C\C(=O)O)CC[C@]1(C)C2=CCC[C@@](C)(CO)[C@H]2CC[C@H]1C [Compound 1]: weak inhibitory activity
C/C(=C\C(=O)O)CC[C@@H]1[C@@]2(C)CCCC(C)(C)[C@@H]2CC[C@@]1(C)O [Compound 2]: weak inhibitory activity

---

Record form. Attribute: inhibition at 100 µM. Fill in for each entry.
target: human recombinant acetylcholinesterase (Hr-AChE) (Homo sapiens, UniProt P22303); construct: purchased Sigma-Aldrich C1682; assay: biochemical; conditions: pH 8, at 100 µM compound; 70 µM acetylcholine; ammonium acetate 15.0 mM, pH 8.0; n = 3; read-out: % inhibition ± s.e.m. ICER-AChEhr
Sequence (P22303 32-614): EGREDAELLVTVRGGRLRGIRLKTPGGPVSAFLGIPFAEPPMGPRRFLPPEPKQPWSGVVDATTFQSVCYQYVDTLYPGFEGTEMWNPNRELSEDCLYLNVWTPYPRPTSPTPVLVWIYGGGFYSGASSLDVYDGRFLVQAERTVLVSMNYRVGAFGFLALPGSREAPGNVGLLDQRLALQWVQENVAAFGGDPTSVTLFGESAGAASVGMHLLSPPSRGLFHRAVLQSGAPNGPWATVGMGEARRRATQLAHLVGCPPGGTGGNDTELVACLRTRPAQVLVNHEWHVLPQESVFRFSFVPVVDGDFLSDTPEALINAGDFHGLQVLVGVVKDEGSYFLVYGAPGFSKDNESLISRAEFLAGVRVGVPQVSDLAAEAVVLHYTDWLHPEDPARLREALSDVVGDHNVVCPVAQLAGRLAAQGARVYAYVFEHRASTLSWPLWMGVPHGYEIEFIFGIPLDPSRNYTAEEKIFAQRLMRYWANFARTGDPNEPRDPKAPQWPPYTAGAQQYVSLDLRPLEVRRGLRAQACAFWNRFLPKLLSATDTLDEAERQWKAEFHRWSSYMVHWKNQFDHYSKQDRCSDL
Give bare numbers, in %.

Answered cases to consult:
C/C(=C\C(=O)O)CC[C@]1(C)C2=CCC[C@@](C)(CO)[C@H]2CC[C@H]1C: 25
C/C(=C\C(=O)O)CC[C@]1(C)C2=CCCC(CO)(CO)[C@H]2CC[C@H]1C: 39.4
C/C(=C\C(=O)O)CC[C@]1(C)C2=CC(=O)C[C@@](C)(CO)[C@H]2CC[C@H]1C: 30.1

Record C/C(=C\C(=O)O)CC[C@@H]1[C@@]2(C)CCCC(C)(C)[C@@H]2CC[C@@]1(C)O , field inhibition at 100 µM: 26.5

---

molecular target: human serum butyrylcholinesterase (Hu-BChE) (Homo sapiens); construct: purchased Sigma-Aldrich B4186; host or cells: human serum; assay: On-flow Hu-BChE-ICER-IT-MS/MS screening assay (hydrolysis of acetylcholine, choline quantified); assay type: biochemical; settings: at 100 µM compound; 70 µM acetylcholine; ammonium acetate 15.0 mM, pH 8.0; n = 3; read-out: % inhibition ± s.e.m. ICER-BChEhu
Sequence (P06276 29-602): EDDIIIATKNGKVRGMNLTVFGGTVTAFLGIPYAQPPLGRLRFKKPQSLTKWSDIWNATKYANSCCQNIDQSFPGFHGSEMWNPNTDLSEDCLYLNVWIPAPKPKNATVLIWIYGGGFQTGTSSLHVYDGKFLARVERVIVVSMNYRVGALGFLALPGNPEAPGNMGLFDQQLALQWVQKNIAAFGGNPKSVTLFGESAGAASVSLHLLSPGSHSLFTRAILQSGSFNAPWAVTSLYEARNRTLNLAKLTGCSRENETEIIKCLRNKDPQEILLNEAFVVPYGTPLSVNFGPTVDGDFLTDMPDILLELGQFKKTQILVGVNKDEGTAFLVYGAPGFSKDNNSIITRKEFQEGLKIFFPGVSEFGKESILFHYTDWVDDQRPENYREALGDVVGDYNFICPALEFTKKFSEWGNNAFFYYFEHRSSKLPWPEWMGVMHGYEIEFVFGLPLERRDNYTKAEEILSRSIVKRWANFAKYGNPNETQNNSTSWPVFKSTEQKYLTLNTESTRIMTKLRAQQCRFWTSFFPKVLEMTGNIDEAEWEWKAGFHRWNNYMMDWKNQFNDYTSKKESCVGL
Measurement Kind: inhibition at 100 µM (%)
Answers are plain numbers, in %.

C/C(=C\C(=O)O)CC[C@]1(C)C2=CC(=O)C[C@@](C)(CO)[C@H]2CC[C@H]1C: 14.5
C/C(=C\C(=O)O)CC[C@]1(C)C2=CCC[C@@](C)(C(=O)O)[C@H]2CC[C@H]1C: 8.17
C/C(=C\C(=O)O)CC[C@H]1[C@](C)(O)[C@H](O)C[C@H]2C(C)(C)CCC[C@@]21C (relative stereo): 20.1
C/C(=C\C(=O)O)CC[C@@H]1[C@@]2(C)CCCC(C)(C)[C@@H]2CC[C@@]1(C)O: 13.3
C/C(=C\C(=O)O)CC[C@]1(C)C2=CCC[C@@](C)(C=O)[C@H]2CC[C@H]1C: 25.1
C/C(=C\C(=O)O)CC[C@@H]1[C@@]2(C)CC[C@H](O)C(C)(C)[C@@H]2CC[C@@]1(C)O (relative stereo): 13.3
C/C(=C\C(=O)O)CC[C@]1(C)C2=CCC[C@@](C)(CO)[C@H]2CC[C@H]1C: 36.1

--- query ---
Record C/C(=C\C(=O)O)CC[C@]1(C)C2=CCCC(CO)(CO)[C@H]2CC[C@H]1C , field inhibition at 100 µM: 14.5

---

target: human recombinant acetylcholinesterase (Hr-AChE) (Homo sapiens, UniProt P22303); construct: purchased Sigma-Aldrich C1682; assay: biochemical
Measurement Kind: IC50

Sample C/C(=C\C(=O)O)CC[C@@H]1[C@@]2(C)CCCC(C)(C)[C@@H]2CC[C@@]1(C)O , system: human recombinant acetylcholinesterase (Hr-AChE) (Homo sapiens, UniProt P22303). Its IC50 is > 100 µM
